These data points were gathered from ChEMBL document CHEMBL1157340.

Tested on: Toxoplasma gondii
EXPERIMENTAL_PROTOCOL: Antiparasitic activity against Toxoplasma gondii in human foreskin fibroblast by beta-galactosidase assay
Format: functional, organism-based
pIC50: −log10 of the molar value.
PROPERTY_NAME: pIC50

INSERT INTO measurements (smiles_structure, endpoint_value) VALUES
  ('COc1cc(-c2ccccc2)c(O)c(O)c1-c1ccccc1', 4.57),
  ('COc1c(O)c(-c2ccccc2)cc(O)c1-c1cc(O)ccc1O', 5.02),
  ('CN1CCC(c2cc(-c3ccncc3)c(-c3ccc(F)cc3)[nH]2)CC1', 6.68),
  ('COc1c(O)c(-c2ccccc2)cc(O)c1-c1ccccc1O', 4.98);

====

// reported pIC50 for each item listed
EXPERIMENTAL_SYSTEM: cGMP-dependent protein kinase (Eimeria tenella)
EXPERIMENTAL_PROTOCOL: Inhibition of Eimeria tenella cGMP-dependent protein kinase assessed as inhibition of transfer of phosphate group by radiometric assay
pIC50: −log10 of the molar value.
PROPERTY_NAME: pIC50

INSERT INTO assay_data (smiles_structure, inequality_operator, endpoint_value) VALUES
  ('COc1c(O)c(-c2ccccc2)cc(O)c1-c1cc(O)ccc1O', '=', 5.24),
  ('COc1cc(-c2ccccc2)c(O)c(O)c1-c1ccccc1', '=', 5.41),
  ('CN1CCC(c2cc(-c3ccncc3)c(-c3ccc(F)cc3)[nH]2)CC1', '>', 9.00),
  ('COc1c(O)c(-c2ccccc2)cc(O)c1-c1ccccc1O', '=', 5.28);
